- assayNotes: Study 1 Part 1: ascending single-dose PK in healthy men
- Assay type: in vivo, human
- conditionsUsed: male, human, plasma, oral, 15 mg, 15 mg single dose, N = 6, read-out: AUCinf, Geometric mean (CV)
- Excerpt: Study 1 was a 2-part single-center trial in healthy adult male volunteers. Part 1 of the study enrolled and randomized 55 healthy men (placebo, n=14; 2-, 5-, 15, 25-, 50, and 100-mg doses, n=6 each; 150-mg dose, n=5). Eight healthy men participated in Part 2. […]
endpoint: AUC(0-inf) (ng·h/mL)
Respond with the bare value in ng·h/mL.

In: Bench note: what AUC(0-inf) did `CC(C)(NC(=O)O[C@@H]1CN2CCC1CC2)c1csc(-c2ccc(F)cc2)n1` show?
Out: 1990

Numbers sourced from patent US12083115B2.
